# Test system: Vero TMPRSS2 cells
# assay.comment: Cytotoxicity at single concentration, CellTiter-Glo ATP quantitation
# Format: cell-based, African Green Monkey
# experimental.context: 125 uM, 72 hours
Entries and their measured % Cell Viability Replicate 2 follow.
Write your answer as a measured quantity: the number, then the unit.

Which % Cell Viability Replicate 2 is reported for this compound? CCCCCCC#Cc1cncc(-c2nnc(SCc3ccc(Cl)cc3)[nH]2)c1 [drawing 119]
1.38%

Please give the measured % Cell Viability Replicate 2 for this compound: CCCCCCC#Cc1cncc(-c2nnc(SCc3cc([N+](=O)[O-])cc([N+](=O)[O-])c3)n2C)c1 [drawing 104]
40.84%

Given the compound CCCCCCC#Cc1cncc(-c2nnc(SCc3ccc(Cl)c(F)c3)n2C)c1 [drawing 101] , what is its reported % Cell Viability Replicate 2?
51.65%

---
Consider the compound shown here: CCCCCCC#Cc1cncc(-c2nnc(SCc3cc(F)cc(F)c3)n2C)c1 [drawing 123] What is its recorded % Cell Viability Replicate 2?
0.94%

Which % Cell Viability Replicate 2 value is on record for CCCCCCC#Cc1cncc(-c2nnc(SCc3cccc(Cl)c3)n2C)c1 [drawing 118] ?
0.94%

Which % Cell Viability Replicate 2 value belongs to CCCCCCC#Cc1cncc(-c2nnc(SCc3ccc(Cl)cc3)[nH]2)c1 [drawing 97] ?
67.58%

Given the compound CCCCCCC#Cc1cncc(C(=O)NN)c1 , what is its reported % Cell Viability Replicate 2?
38.69%
